Every entry's value here was drawn from patent US8673306B2.

Target: T1, human recombinant, biotinylated DKK1 (Homo sapiens, UniProt O94907)
T1 sequence (O94907 32-266): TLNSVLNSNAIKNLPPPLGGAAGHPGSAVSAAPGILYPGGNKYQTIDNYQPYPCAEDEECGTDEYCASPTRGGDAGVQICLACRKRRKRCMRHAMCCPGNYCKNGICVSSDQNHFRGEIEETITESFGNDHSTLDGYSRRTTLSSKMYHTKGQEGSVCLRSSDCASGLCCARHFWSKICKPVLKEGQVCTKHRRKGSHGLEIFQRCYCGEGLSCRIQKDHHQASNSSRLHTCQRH
Test: ELISA binding of matured Fabs in presence of 50% human serum
Conditions: Fab 1 μg/ml
Marks after values point to notes of the source that are not given here.
measure.name: Binding activity w/50% Human serum vs 4% BSA (%)

get_value(item= MOR04907: affinity-optimized Fab from MOR04456; VH SEQ ID NO: 8, VL SEQ ID NO: 27 (antibody, listed as Homo sapiens, V domains shown) VH: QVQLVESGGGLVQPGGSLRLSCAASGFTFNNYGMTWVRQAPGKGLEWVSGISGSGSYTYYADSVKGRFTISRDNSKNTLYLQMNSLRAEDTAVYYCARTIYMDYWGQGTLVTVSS VL: DIVLTQSPATLSLSPGERATLSCRASQNLFSPYLAWYQQKPGQAPRLLIYGASNRATGVPARFSGSGSGTDFTLTISSLEPEDFAVYYCQQYLSLPTTFGQGTKVEIKRT , readout=Binding activity w/50% Human serum vs 4% BSA (%)) returns >83* %
